Parameter pKi: see the listing below.
- target-system: T1, PBP3 of E. coli (E. coli), P0AD68
- T1 chain: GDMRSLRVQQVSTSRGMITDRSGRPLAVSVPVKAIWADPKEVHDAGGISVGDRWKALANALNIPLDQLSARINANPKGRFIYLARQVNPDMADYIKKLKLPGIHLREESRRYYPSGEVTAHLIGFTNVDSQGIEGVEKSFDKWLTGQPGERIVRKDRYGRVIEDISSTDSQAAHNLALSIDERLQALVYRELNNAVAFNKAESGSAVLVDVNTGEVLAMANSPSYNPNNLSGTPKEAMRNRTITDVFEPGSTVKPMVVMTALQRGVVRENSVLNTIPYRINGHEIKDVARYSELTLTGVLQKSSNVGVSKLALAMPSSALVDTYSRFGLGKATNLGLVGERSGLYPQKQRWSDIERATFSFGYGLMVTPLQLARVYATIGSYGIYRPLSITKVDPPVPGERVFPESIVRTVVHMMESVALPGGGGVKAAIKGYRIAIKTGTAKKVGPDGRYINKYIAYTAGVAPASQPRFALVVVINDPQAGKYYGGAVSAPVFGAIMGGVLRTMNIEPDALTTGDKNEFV
- protocol-description: FP competition, tracer BCY12820
Reminder that pKi means the negative base-10 logarithm of the concentration expressed in mol/L.

Reference set, count: 5
INSERT INTO measurements (binder, measurement) VALUES
  ('ACAFPKCPWVEGCA (modifications not checked) [BCY13656]', 8.30),
  ('ACSFPKCPWVEKCA (modifications not checked) [BCY13419]', 7.40),
  ('CSFPKCPWVEGC (modifications not checked) [BCY13949]', 4.34),
  ('CSFPKCPWVEGC (modifications not checked) [BCY12742]', 8.52),
  ('ACSFPKCPWVEACA (modifications not checked) [BCY13664]', 7.52);

INPUT: # return recorded pKi for entry ACSFPACPWVEGCA (modifications not checked) [BCY13659]
OUTPUT: 8.40

INPUT: # return recorded pKi for entry ACQFPVCPWVEGCA (modifications not checked) [BCY13226]
OUTPUT: 7.70
